- Test system: NOMO-1
- assay_notes: cell viability (% survival relative to DMSO control, bortezomib = 0%); higher = less cytotoxic
- experimental_parameters: 10000 nM; 72 h
property_label: cell viability (%)

[[record]]
compound = "CCOc1ccc(Cc2cc([C@@H]3O[C@H](CO)[C@@H](O)[C@H](O)[C@H]3O)ccc2Cl)cc1"
reported_measurement = 97

[[record]]
compound = "Sc1ncnc2nc[nH]c12"
reported_measurement = 30.5

[[record]]
compound = "Cc1c(-c2ccccc2)oc2c(C(=O)OCCN3CCCCC3)cccc2c1=O.Cl [Flavoxate]"
reported_measurement = 99.6

[[record]]
compound = "O=C(O)CCc1ccc(NCc2cccc(Oc3ccccc3)c2)cc1"
reported_measurement = 104

[[record]]
compound = "O=c1c2ccccc2[se]n1-c1ccccc1"
reported_measurement = 102

[[record]]
compound = "O=C(O)c1nn(Cc2ccc(Cl)cc2Cl)c2ccccc12"
reported_measurement = 105

[[record]]
compound = "CCN(CC)CCN(Cc1ccc(-c2ccc(C(F)(F)F)cc2)cc1)C(=O)Cn1c(SCc2ccc(F)cc2)nc(=O)c2c1CCC2"
reported_measurement = -0.418

[[record]]
compound = "CC(C)C[C@H](NC(=O)[C@@H](O)[C@H](N)Cc1ccccc1)C(=O)O"
reported_measurement = 100

[[record]]
compound = "CCOC(=O)[C@H]1O[C@@H]1C(=O)N[C@@H](CC(C)C)C(=O)NCCC(C)C"
reported_measurement = 24.4

[[record]]
compound = "C1CCc2nnc(C34CC5CC(CC(C5)C3)C4)n2CC1"
reported_measurement = 109

[[record]]
compound = "O=C1Oc2ccccc2C(=O)C1CC1C(=O)Oc2ccccc2C1=O (stereo not drawn)"
reported_measurement = 96.3

[[record]]
compound = "COc1c(C)c2c(c(O)c1C/C=C(\\C)CCC(=O)O)C(=O)OC2"
reported_measurement = 24.7

[[record]]
compound = "CCCc1nn(C)c2c(O)nc(-c3cc(S(=O)(=O)N4CCN(C)CC4)ccc3OCC)nc12"
reported_measurement = 94.9

[[record]]
compound = "Oc1cc(Cl)ccc1Oc1ccc(Cl)cc1Cl"
reported_measurement = 105

[[record]]
compound = "CN(C/C=C/C#CC(C)(C)C)Cc1cccc2ccccc12"
reported_measurement = 96.9

[[record]]
compound = "Clc1ccc(COC(Cn2ccnc2)c2ccc(Cl)cc2Cl)cc1 (stereo not drawn)"
reported_measurement = 89.1

[[record]]
compound = "C=CCc1ccc2c(c1O)C(=O)c1ccccc1C2=O"
reported_measurement = 100

[[record]]
compound = "O=P(O)(O)C(O)(Cn1ccnc1)P(=O)(O)O"
reported_measurement = 94.6

